All figures here come from patent US5126336A.

These compounds were tested on P. mirabilis IFO-2849; MIC is the recorded read-out.
Field: numeric (µg/mL). Do not append units.

The cases that follow already have their MIC on record.
Nc1nc(/C(=N/O)C(=O)NC2C(=O)N3C(C(=O)O)=C(/C=C/Cn4cnc5cc(O)c(O)cc54)CS[C@H]23)cs1 (stereo partly drawn) [Ir]; 0.8
Nc1nc(/C(=N/O)C(=O)NC2C(=O)N3C(C(=O)[O-])=C(/C=C/C[n+]4cc5cc(O)c(O)cc5cn4)CS[C@H]23)cs1 (stereo partly drawn) [Ik]; 0.2

# input for lookup
Dear colleague, I am looking for the recorded MIC of the following compound: CC(C)(O/N=C(\C(=O)NC1C(=O)N2C(C(=O)[O-])=C(/C=C/C[n+]3cc4cc(O)c(O)cc4cn3)CS[C@H]12)c1csc(N)n1)C(=O)O (stereo partly drawn) [Ii] 0.025
